// data source = the Human Domainome abundance scans (Beltran et al. 2025)

B1: Zinc finger homeobox protein 3, residues 2244 to 2299; numbered along this chain, Q15911 (parent)
chain: SSRTRFTDYQLRVLQDFFDANAYPKDDEFEQLSNLLNLPTRVIVVWFQNARQKARK

- Variants of: B1
- Measurement Notes: abundance fitness (aPCA) (normalised: wild type 0, dead -1); higher = more abundant; growth selection in yeast, the domain comes from the species named
- Setup Conditions: Homo sapiens
Measurement Label: abundance fitness
Provide a numeric answer; units are not to be included.

R5V :: 0.362
Q31L :: -0.257
T4L :: -0.116

So what does the record say about abundance fitness for F18Y ?
0.011

L36C , same question.
-0.313

Q15V , same question.
-0.319

E28R , same question.
-0.481

Q15W , same question.
-0.213

Q31T , same question.
0.035

Y23I , same question.
0.092

D26P , same question.
-0.163
